assay: folding stability dG unfold from chymotrypsin proteolysis; higher = more stable
What folding stability dG unfold was measured for each of the following?
Give bare numbers, in kcal/mol.

Look over these answered cases.
* SAGGSAEIWIWMPYDMIESLAKKAGDPNVKVEPVEPPDDNPGEPYWFKITLKDNGKPKREIEFWFPSAGGSA [r15_428_TrROS] | 2.67
* SAGGSAGGSAGGKVTIEFPTSRVELYPLPGPFVLAEVSFPNRKLLALAHPDGDEILILPISAGGSAGGSAGG [r7_683_TrMRF] | 1.05
* SAGGMILIERDGRERVLEKAREAVEAEAARARAGDVEDAVLLVDLRVVDPVTGEWEELPVLARVPPASAGGS [r8_163_TrMRF] | 0.461
* SAGGSAGGSAMDAEEIADMIKEILRKQFPNVKITEITVERRPPGNYYVEARVPDGNQRTIPISAGGSAGGSA [r18_423_TrROS] | 0.286
* SAGMTIILVGPNAKEAVEKVAEELRKRDVGPPVTVLVLEPGGKPVLRARVERRPPDPDRFVVTVEPVESAGG [r19_85_TrMRF] | 1.41
* SAGGSAGGSAHKITITLPNGNPPEIVVEFETEEEAKEKAEEIIKKLEEEGYPKENLTVTIEKESAGGSAGGS [r12_295_JUSTAS] | 1.76

Let us move to another entry and its folding stability dG unfold.
In: Dear colleague, please send me the reported folding stability dG unfold for SAGGSAGGSAMIETTVSFDPSTGTVTTTTTYTDPNGGYTKSSTTVTPVPTPAPPPPAAPNRVSAGGSAGGSA [r18_361_JUSTAS] when you can.
Out: 0.582

---

What folding stability dG unfold was measured for each of the following?
experiment: folding stability dG unfold (combined trypsin and chymotrypsin); higher = more stable
One number for each entry, in kcal/mol.

Look over these answered cases.
- SAGGSAGGSAPGKSITITFLFIWPDGWILVMKITFDPDGPGDIDIEWQWIPIPPPEPPPEDPSAGGSAGGSA [r18_409_TrROS]: 5.16
- SAGGSAGGSAGGAVTPETIELPDATITVYTYPEGVVVEVTDPETGQATVISPEEFERLLASAGGSAGGSAGG [r7_372_JUSTAS]: 1.5
- SMKIPVKTNDPEALKELLNKIKEILEKAKEKGYEIFPIPIILDNGKEIIFPIDPNDKIEEVIKKIEEALKSA [r9_127_TrMRF]: 2.02
- SAGMKPGDMRPVEIPFEIYQYDDGGPKPVAPMTIKIMVNPDEGYVMLEIENPGNGEPVIIFTLPADDISAGG [r19_413_TrROS]: 2.16
- SVYIPIPMGDPEGLKEMLDFIKNILEKNQENGYENVPIPIHMPNGGPFEFPIDPNSTLEEQLDQIEKFIESA [r9_127_TrROS]: 1.15

The following sequences each have a reported value; give each one's folding stability dG unfold.
1. SAGGSAGGSKEFKVEEVGGRLYITFPDGTVVEVRFDKPVTFDLKTGKLYFPEGAEVEKRRLKESAGGSAGGS [r20_158_TrROS_Hall]
2. SAGGSAGGPLENDIPIPLTVPLPGPGTAELFLLPSTGEVLALVEGKPYLVSLEDLKDGVFRLGLSAGGSAGG [r6_939_TrMRF]
3. SMKPGEVKELTLKLTIPVKPGEITVTLVLKLEDGRYVVVESRATVKEDGTIEIEVKIRVYDPKTNEWKELSA [r9_349_TrROS_Hall]
4. SAGGSIELPLEEGSTAEVELELRVPFYRLDANGRPVAPEERTLRIRARFTRLPDGRVLVEVEVEVESAGGSA [r2_154_TrMRF]
5. SMIDIEISTDPNNPNVITVTAKYPDPEKAKEYLEKKLKEEYDVISISYEYEPENPIITFTFTYASPEKPQSA [r9_1120_JUSTAS]
6. SAGGKRRTINFDIEGMTPEKFVHMARMAIRNLPDPEQVTITINMRNPMWRRWFIELAKELPGIEIEFMSAGG [r13_718_TrROS]
7. SAGGSAGGMIVTTTFLPGNLKVVNVTTTYETTDPSGTTTSTTTTSTTIEYIPPVPVDINNPLLISAGGSAGG [r6_920_JUSTAS]

Out:
[0.905, 0.576, 2.89, 4.98, 2.79, 3.19, 1.41]

---

test: folding stability dG unfold from chymotrypsin proteolysis; higher = more stable
Everything with folding stability dG unfold lower than 3 kcal/mol is NOT MET; everything else, including exactly 3 kcal/mol, is MET.

• SAGGSAEIEGLEFEIVEVTEVRVLPDGTVEITLRVRLPDGSYLRITITVSPDGTVTIDIELLPADESAGGSA [r15_559_TrROS_Hall] = MET

In: Reported folding stability dG unfold reaches at least 3 kcal/mol for SAGGMIRIERDGDRLTIEIHLPEGEELTPEQLEELARALLEELGPDARVVRVERLEDGTVRIEVELPSAGGS [r8_103_TrROS_Hall] ?
Out: NOT MET

In: Reported folding stability dG unfold reaches at least 3 kcal/mol for SAGGSAGGSAGGMTITVVTEESPGPFKTVTVTTTTPLPNGTLATTTTTTFLPVSPDEPVSAGGSAGGSAGGS [r10_241_JUSTAS] ?
Out: NOT MET

---

assay: folding stability dG unfold (combined trypsin and chymotrypsin); higher = more stable
What folding stability dG unfold was measured for each of the following?
Give bare numbers, in kcal/mol.

* SALEIEIEQDEDGNMRISVYLPGWKPIEEQPVPPGDGMKTFIIKLPDRVLMITFTNGGIEPNPVPLNDISAG [r14_403_TrROS] | 2.51

The following sequences each have a reported value; give each one's folding stability dG unfold.
1. SAGGSAGGSAGGSFKVTYFPGEKLLAVTFPDGSKKIFKIDDKGNPTIIAVIDPDKGKVLPSAGGSAGGSAGG [r7_659_TrMRF]
2. SAGDTISIMIPPGMSGERAVNQIKYIAREQKENGKKRKITIWMPDPMRARFIKKALDEKGIPIEIEFWSAGG [r19_268_TrROS]
3. SAGGSAIKLPSGVKIEFKKTEDGKYIVRVTLPDGKPIELEFEGDPEGPNNITPEEINDAILEKIKSSAGGSA [r15_780_TrMRF]

Out:
1. 2.35
2. 1
3. 3.06

The following sequences each have a reported value; give each one's folding stability dG unfold.
1. SPVEIVSEETDPNGGTKYKTYSNPQADVRIEVAYPSSGITITVHFPDSTSTKSFSSEADAEKEVVRLAASSA [r9_527_JUSTAS]
2. SAGGSAIEIEPAPDNVLVVTADLPPNVPAEKLVEALKDLIPDVEFETSSSADGRHVIVLRLPPDVFSAGGSA [r15_1047_TrMRF]

Out:
1: 0.711; 2: 1.05

---

test: folding stability dG unfold from trypsin proteolysis; higher = more stable
Everything with folding stability dG unfold lower than 2 kcal/mol is NOT MET; everything else, including exactly 2 kcal/mol, is MET.

- SAGGSAGGSAGGPVVNILVKHPNGKKETISVDVKEENIGEVATDILPKGYEVLEPSVFPGSAGGSAGGSAGG [r7_159_TrMRF]: NOT MET
- SAGPWRIKEVDPDSYTIEIRFGDRPIEIKIPPGKEPSIMIEMDPDGHFQLTIRVPDRTRTFTIPFDDIRSAG [r5_500_TrROS]: NOT MET
- SAGGSAGGSDKIKELAKKLKIVKVEKKKDGKYILLVKDEKTGKLYEIEVDLKTNKVTIKELKPSAGGSAGGS [r12_944_TrROS_Hall]: MET
- SDKIIIPIYLPPGQDPDEIKNEIKWFARELWDKLGLPPNVKVEIEPRPYPEGYRRYMITIRLGGKEITIWSA [r9_776_TrROS]: MET
- SAGGMADEELANMSLEEVIAAVKEAGAKTVTVTFPDGSTLTIDLGDDGVVTVTLTTPPGEKETFEIPSAGGS [r8_51_TrMRF]: MET

In: Reported folding stability dG unfold reaches at least 2 kcal/mol for SAGGSAMPPGQPWKIKRTIPFKDPNGWKITIYRMPDDGHVWVRWEPPNGGEREVWMPAEEAEDALKSAGGSA [r15_2_TrROS] ?
Out: NOT MET

In: Reported folding stability dG unfold reaches at least 2 kcal/mol for SAGGSAGGSPPPRFRVVVVFEDGTRREFDLTPEELVAFAEVVPDVVVEELPPGEVRITVRLPGSAGGSAGGS [r20_231_TrMRF] ?
Out: MET

In: Reported folding stability dG unfold reaches at least 2 kcal/mol for SAGGSAGGSAMLVIRVYFEDTGRVLTLTADSEEEALEAIKRLLPPGAKIKKVEIFEVSEEDLSAGGSAGGSA [r18_350_TrROS_Hall] ?
Out: MET

---

test: folding stability dG unfold from trypsin proteolysis; higher = more stable
Property Measured: folding stability dG unfold

- SAGGSAGGVIRMPFVIPDGYVIKDLTVHWSPGNGMFMIEIEIEPVKPPPPPEISPEELNKKNNKSAGGSAGG [r6_148_TrROS]: 2.15 kcal/mol
- SAGGPLTLEDLKNMPPGEKLEFTFGGYTYEVEIYKNDNGPPYITVKQRDPHDGEPVEEKRVPADDIVSAGGS [r16_763_TrROS]: 0.956 kcal/mol
- SAGGSAGGSMKVEIKFPDGSVKTIPLSPEEPDVPPEALVKELGADNVTITYYTPDGVPINLGISAGGSAGGS [r12_411_JUSTAS]: 0.297 kcal/mol

The following sequences each have a reported value; give each one's folding stability dG unfold.
1. SAGMVATLYDPNLPPVSVGITETVTVPHPEGFTVTVTLSSDGTATVTPSDGSSTTLPDASEVRVTATPASAG [r5_869_JUSTAS]
2. SAGGSAGGSAGKKITLPNATITYDEETGEVTITVDGKTITLPPGAKIEVDENGNLTIYLPSAGGSAGGSAGG [r17_34_TrROS_Hall]

Out:
["1.31 kcal/mol", "2.45 kcal/mol"]
